Assay: Relative cytotoxicity by MTS assay (CellTiter 96) of lipoplex-treated NIH 3T3 cells
Assay type: cell-based
Settings: mouse, nih 3t3 cells, 1:1 lipid:DOPE, 2:1 charge ratio, FIG. 2, read-out: treated cells impaired
METRIC: cytotoxicity

(Q) Return cytotoxicity (reported value) for this compound: CC(C)CCC[C@@H](C)[C@H]1CC[C@H]2[C@@H]3CC=C4C[C@@H](OC(=O)NCCN(C)C)CC[C@]4(C)[C@H]3CC[C@]12C [DC-Chol, reference compound]
(A) ~60%
